# assay_system: Rhesus PDE2A3 (Macaca mulatta)
# Sequence (B3VTJ2 1-941): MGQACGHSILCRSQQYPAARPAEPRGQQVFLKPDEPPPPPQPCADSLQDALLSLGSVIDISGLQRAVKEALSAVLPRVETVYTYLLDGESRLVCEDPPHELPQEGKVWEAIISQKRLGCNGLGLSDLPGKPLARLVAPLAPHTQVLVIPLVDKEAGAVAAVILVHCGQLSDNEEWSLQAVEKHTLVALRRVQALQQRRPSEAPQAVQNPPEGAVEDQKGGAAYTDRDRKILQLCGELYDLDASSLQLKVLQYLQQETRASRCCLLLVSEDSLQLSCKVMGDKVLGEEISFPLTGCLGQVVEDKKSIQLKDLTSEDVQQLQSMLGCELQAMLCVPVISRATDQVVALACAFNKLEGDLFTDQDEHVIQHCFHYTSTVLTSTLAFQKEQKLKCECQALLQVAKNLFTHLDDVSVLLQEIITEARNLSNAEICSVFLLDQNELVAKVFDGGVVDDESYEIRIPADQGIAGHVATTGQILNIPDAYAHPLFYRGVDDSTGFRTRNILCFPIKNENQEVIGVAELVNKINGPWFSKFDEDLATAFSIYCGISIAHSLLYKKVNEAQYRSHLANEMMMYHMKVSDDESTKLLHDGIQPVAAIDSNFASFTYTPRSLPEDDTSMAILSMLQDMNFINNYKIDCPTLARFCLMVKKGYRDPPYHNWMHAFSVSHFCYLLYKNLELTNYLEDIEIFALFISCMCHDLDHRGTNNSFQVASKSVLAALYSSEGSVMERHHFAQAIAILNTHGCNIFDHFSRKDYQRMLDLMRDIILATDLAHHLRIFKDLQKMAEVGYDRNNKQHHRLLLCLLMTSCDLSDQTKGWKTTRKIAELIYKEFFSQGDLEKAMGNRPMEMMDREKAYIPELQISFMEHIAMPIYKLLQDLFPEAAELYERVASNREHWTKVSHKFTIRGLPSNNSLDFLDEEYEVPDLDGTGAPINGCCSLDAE
# test_summary: PDE2 fluorescence polarization (IMAP FP) inhibition assay, rhesus enzyme
# Format: biochemical, rhesus macaque
# condition_notes: Rhesus PDE2, Lab B; read-out: Rhesus PDE2 Ki (nM) - Lab B
quantity_name: Ki (nM)
Write the number in nM without appending the unit.

Completed entries (count: 2):
INSERT INTO measurements (compound, assay_system, readout_number) VALUES
  ('CC1(c2ccc(C(NC(=O)c3cc(=O)[nH]c(-c4ncccn4)n3)C(C)(C)C)cc2F)CC1 (single isomer, unassigned) [Example 717]', 'Rhesus PDE2A3 (Macaca mulatta)', 17),
  ('Cc1nc(C(=O)N[C@@H](c2ccc(C(C)(C)C)cc2)C2(C)CC2)cc(=O)[nH]1 [Example 614]', 'Rhesus PDE2A3 (Macaca mulatta)', 20);

Entry CC(C)(NC(=O)c1cc(=O)[nH]c(-c2ccccc2)n1)c1ccc(S(F)(F)(F)(F)F)cc1 [Example 679] ; assay system Rhesus PDE2A3 (Macaca mulatta); Ki recorded at 90

Log: Rhesus PDE2A3 (Macaca mulatta), compound CC(C)(NC(=O)c1cc(=O)[nH]c(-c2ccccc2)n1)c1ccc(F)c(F)c1 [Example 344] , Ki = 681

====

# assay_system: Rhesus PDE2A3 (Macaca mulatta)
# test_summary: PDE2 fluorescence polarization (IMAP FP) inhibition assay, rhesus enzyme
# Type: biochemical, rhesus macaque
# condition_notes: Rhesus PDE2, Lab B; read-out: Rhesus PDE2 Ki (nM) - Lab B
quantity_name: Ki

These recorded examples may help you get a feel for the data.
INSERT INTO measurements (molecule, quantity_name, result) VALUES
  ('COc1ccc(C(NC(=O)c2cc(=O)[nH]c(-c3ccccc3)n2)c2ccc(C(F)(F)F)cc2)cc1 (stereo not drawn)', 'Ki', '~20400 nM'),
  ('COC(=O)C(NC(=O)c1cc(=O)[nH]c(-c2ccccc2)n1)c1ccc(C(F)(F)F)cc1 (stereo not drawn)', 'Ki', '226 nM'),
  ('COc1ccc(C(C)(C)c2nc(C(=O)N[C@@H](c3ccc(SC(F)(F)F)cc3)C(C)(C)C)cc(=O)[nH]2)cc1', 'Ki', '116 nM'),
  ('C[C@@H](NC(=O)c1cc(=O)[nH]c(C2CC2)n1)c1ccc(SC(F)(F)F)c(F)c1', 'Ki', '6.7 nM'),
  ('COc1cc(C(F)(F)F)ccc1[C@H](C)NC(=O)c1cc(=O)[nH]c(-c2ccccc2)n1', 'Ki', '1910 nM');

// field: Ki; key: CC[C@@H](NC(=O)c1cc(=O)[nH]c(Cc2ccc(OC)c(F)c2)n1)c1ccc(SC(F)(F)F)c(F)c1 ; value = 1.7 nM

Looking up O=C(NC1(c2ccc(OC(F)(F)F)c(F)c2)CC1)c1cc(=O)[nH]c(-c2ncccn2)n1 , I see its Ki listed as 17 nM

Entry COc1ccc(Cc2nc(C(=O)N[C@@H](c3ccc(S(F)(F)(F)(F)F)cc3)C3CC3)cc(=O)[nH]2)cc1 , Ki reported as 2.8 nM

Just so you know, measured Ki for O=C(NC1(c2ccc(C(F)(F)F)cc2)CCCC1)c1cc(=O)[nH]c(-c2ccccc2)n1 came out at 29 nM

Lab note: measured Ki of CC(C)(C)[C@@H](NC(=O)c1cc(=O)[nH]c(C2CC2)n1)c1ccc(OC(F)(F)F)cc1 was 1.2 nM

Please fill in: Ki reported for Cc1nc(C(=O)NC(C)(C)c2ccc(C(F)(F)F)cc2F)cc(=O)[nH]1 = 30 nM

Sure, the documented Ki for CCOC(=O)c1ccc([C@H](C)NC(=O)c2cc(=O)[nH]c(-c3ncccn3)n2)cc1 is ~2890 nM

Item: Cc1nc(C(=O)NC(C)(c2ccc(S(F)(F)(F)(F)F)cc2)C(C)C)cc(=O)[nH]1 (single isomer, unassigned) [Example 662] | Ki: ~1220 nM

Quick note, Ki for CCOC(=O)c1ccc([C@@H](C)NC(=O)c2cc(=O)[nH]c(-c3ncccn3)n2)cc1 landed at > 2970 nM

Lab note: O=C(NC1(c2ccc(SC(F)(F)F)c(F)c2)CC1)c1cc(=O)[nH]c(C2CC2)n1 gave Ki of 14 nM

So, Cc1nc(C(=O)NC(c2ccc(SC(F)(F)F)cc2)C(C)C)cc(=O)[nH]1 (stereo in doubt) ? Its Ki was 441 nM

So for C[C@@H](NC(=O)c1cc(=O)[nH]c(-c2ccccc2)n1)c1ccccc1 , the logged Ki turned out to be 963 nM

Ki recorded for this molecule, O=C(N[C@@H](c1ccc(SC(F)(F)F)c(F)c1)C1CC1)c1cc(=O)[nH]c(-c2ncccn2)n1 , is 9.8 nM

Form field Ki, entry C[C@@H](NC(=O)c1cc(=O)[nH]c(C2CC2)n1)c1ccc(C2CC2)cc1 : 21 nM

Ki measured on Cc1nc(C(=O)N[C@H](C)c2ccc(S(F)(F)(F)(F)F)cc2)cc(=O)[nH]1 = 19 nM

Lab book: Ki of Cc1nc(C(=O)N[C@@H](c2ccc(C(F)(F)F)c(F)c2)C2(C)CC2)cc(=O)[nH]1 noted as 13 nM

Item: Cc1nc(C(=O)NC2(c3ccc(C(F)(F)F)c(F)c3)CC2)cc(=O)[nH]1 | Ki: 16 nM

Value of Ki reported for the molecule CC(C)[C@@H](NC(=O)c1cc(=O)[nH]c(-c2ccccc2)n1)c1ccc(SC(F)(F)F)c(F)c1 is 4.5 nM

Ki recorded for this molecule, CC(NC(=O)c1cc(=O)[nH]c(-c2ccccc2)n1)c1ccc2c(c1)OCO2 (stereo not drawn) , is 891 nM

Data point: O=C(N[C@@H](CC(F)(F)F)c1ccc(C(F)(F)F)cc1)c1cc(=O)[nH]c(-c2ccccc2)n1 ; Ki = 458 nM
